- System: SN12C
- Test Name: NCI tumour cell line growth inhibition, 48 h
Calls of active or inactive are those of the source. Rule as the data show it: active = GI50 up to about 1.1 µM and inactive = higher.
Outcome codes: active, inactive

compound="CCc1cccc(CC)c1NC(=O)CC1SC(N)=NC1=O (stereo not given)" target_or_system=SN12C assigned_category=inactive
compound=S=C(NCCc1ccccn1)N/N=C(\c1ccccc1)c1ccccn1 target_or_system=SN12C assigned_category=active
compound=COc1cc2cc(c1Cl)N(C)C(=O)C[C@H](OC(=O)[C@H](C)N(C)C(C)=O)[C@]1(C)O[C@H]1[C@H](C)[C@@H]1C[C@@](O)(NC(=O)O1)[C@H](OC)/C=C/C=C(/C)C2 target_or_system=SN12C assigned_category=active
compound=COc1ccc(/C=N/n2cnc3[nH]c(C)c(Cc4ccccc4)c3c2=N)cc1 target_or_system=SN12C assigned_category=inactive
compound=CC(C)(C)C#CI1OC(=O)c2ccccc21 target_or_system=SN12C assigned_category=inactive
compound="COc1cccc(C2CC(C)=Nc3c(ccc4c3C(=O)c3ccccc3C4=O)N2)c1O (stereo not given)" target_or_system=SN12C assigned_category=inactive
compound=O=C(/C=C/c1c(O)ccc2ccccc12)c1ccccc1 target_or_system=SN12C assigned_category=inactive
compound="O=C(NCCS(=O)(=O)N1C(=O)C2CCCN2C(=O)[C@@H]1Cc1ccccc1)OCc1ccccc1 (stereo not given in full)" target_or_system=SN12C assigned_category=inactive
compound=CC(C)(C)c1cc(C(=O)/C=C/c2ccc(C(=O)O)cc2)cc(C(C)(C)C)c1 target_or_system=SN12C assigned_category=inactive
compound="COC(=O)c1ccc2c(c1)C(NC(C)=O)CCc1cc(OC)c(OC)c(OC)c1-2 (stereo not given)" target_or_system=SN12C assigned_category=active
compound=CN(C)CCN(C)c1ccc2c(=O)n(CCN(C)C)c(=O)n3c4ccccc4c(=O)c1c23 target_or_system=SN12C assigned_category=active
compound=Cc1c(CCCl)c(N=P(c2ccccc2)(c2ccccc2)c2ccccc2)n2c(nc3ccccc32)c1C#N target_or_system=SN12C assigned_category=inactive
compound="CCN(CC)CC1CN=C(N)O1 (stereo not given)" target_or_system=SN12C assigned_category=inactive
compound=Cc1nc2c(o1)C(=O)c1ccccc1/C2=N/c1ccc(N2CCOCC2)cc1 target_or_system=SN12C assigned_category=inactive
compound="OC(c1ccoc1)c1cc2ccccc2s1 (stereo not given)" target_or_system=SN12C assigned_category=inactive
compound=O=C1C(=CNc2ccc([N+](=O)[O-])cc2)C(=O)N(c2ccccc2)C(=O)N1c1ccccc1 target_or_system=SN12C assigned_category=inactive
compound=CC(=O)Oc1cccc2c(/C=N/NC(N)=S)ncc(C)c12 target_or_system=SN12C assigned_category=active
compound="COc1cccc(C2SC(=N)Nc3c2c(C)nn3C(=O)Cc2ccccc2)c1 (stereo not given)" target_or_system=SN12C assigned_category=inactive
compound=O=C(Nc1sccc1S(=O)(=O)c1ccc(Cl)cc1)c1ccc(Cl)cc1 target_or_system=SN12C assigned_category=inactive
compound="C/C=C/C=N/N(C(=O)c1cc([N+](=O)[O-])cc([N+](=O)[O-])c1)C1=NN=C(c2ccccc2)C(c2ccccc2)N1 (stereo not given)" target_or_system=SN12C assigned_category=inactive

* * *

# GI50 listing for each entry below
- System: T47D
- Test Name: NCI tumour cell line growth inhibition, 48 h
Calls of active or inactive are those of the source. No stated cut-off is given here; in the data, active = GI50 up to about 1.1 µM and inactive = higher.
Endpoint Name: GI50

compound=CCOC(=O)C1(Cc2ccccc2)Cc2cc3c(cc2C1)CCC3 experimental_result="26.7 µM (inactive)"
compound="CCC(C)C(NC(=O)C(CCCCN)NC(=O)C(NC(=O)C(CCC(N)=O)NC(=O)C(CCCNC(=N)N)NC(C)=O)C(C)CC)C(=O)NC(Cc1c[nH]c2ccccc12)C(=O)NC(Cc1ccccc1)C(=O)NC(CCC(N)=O)C(=O)NC(CC(N)=O)C(=O)NC(CCCNC(=N)N)C(=O)NC(CCCNC(=N)N)C(=O)NC(CCSC)C(=O)NC(CCCCN)C(=O)NC(Cc1c[nH]c2ccccc12)C(=O)NC(CCCCN)C(=O)NC(CCCCN)C(N)=O (stereo not drawn)" experimental_result="16.3 µM (inactive)"
compound=O=C1CSCc2sccc21 experimental_result="> 100 µM (inactive)"

* * *

- Tested on: MOLT-4
- Test Name: NCI tumour cell line growth inhibition, 48 h
Activity calls are given as the source filed them. No stated cut-off is given here; in the data, active = GI50 up to about 1.1 µM and inactive = higher.
Outcome codes: true (1) (active), false (0) (inactive)

molecule=Cc1cc2cc(Cl)ccc2nc1C(=O)c1ccccc1 assigned_category="false (0)"
molecule="CC(=O)OC1CC2c3cccc4c3C(CC2N(C)C1=O)CN4C(=O)c1ccccc1 (stereo not given)" assigned_category="false (0)"
molecule=CCOC(=O)c1c(C)n(Cc2ccc(Cl)cc2Cl)c2c1cc(O)c1[nH]c3c(c12)CCCC3 assigned_category="true (1)"
molecule=Cn1c(-c2cccc(N)c2)[n+](C)c2ccccc21 assigned_category="false (0)"
molecule="COc1cc2c3c(cc(Cl)nc3c1OC)C(O)(CC(C)=O)C(=O)N2 (stereo not given)" assigned_category="false (0)"
molecule="CCc1cccc(CC)c1NC(=O)CC1SC(N)=NC1=O (stereo not given)" assigned_category="false (0)"
molecule=O=C(/C=C/c1c(O)nc2ccccc2c1O)CC(=O)C(=O)Nc1cccc(O)c1 assigned_category="false (0)"
molecule="c1ccc(C(NCC2CCO2)(c2ccccc2)c2ccccc2)cc1 (stereo not given)" assigned_category="false (0)"
molecule="CCOC(=O)C1(Cc2ccc3ccccc3c2)CCCCC(=O)N1 (stereo not given)" assigned_category="false (0)"
molecule="COc1cc(C2c3cc(OC)c(OC)c(O)c3C(=O)C3CCC(=O)N32)cc(OC)c1OC (stereo not given)" assigned_category="false (0)"

* * *

- Test system: BT-549
- Test Name: NCI tumour cell line growth inhibition, 48 h
The source made the active and inactive calls. Rule as the data show it: active = GI50 up to about 1.1 µM and inactive = higher.
Endpoint Name: GI50

molecule=c1ccc2c3c(ccc2c1)CSCc1ccc2ccccc2c1-3 endpoint_name=GI50 experimental_result="> 100 µM (inactive)"
molecule=CCN(CC)CCc1c2c(nc3ccccc13)C(=O)c1cccnc1C2=O endpoint_name=GI50 experimental_result="2.4 µM (inactive)"
molecule="O=C1NC2CCCCC2NC1=C(C(=O)c1ccccc1)C(=O)c1ccccc1 (centres undefined)" endpoint_name=GI50 experimental_result="10.9 µM (inactive)"
molecule="COc1cc(COC(=O)NC(Cc2cccs2)C(=O)O)c([N+](=O)[O-])cc1OC (centres undefined)" endpoint_name=GI50 experimental_result="> 100 µM (inactive)"

* * *

- System: HCC 2998
- Test Name: NCI tumour cell line growth inhibition, 48 h
Active and inactive are the calls of the source. Cut-off read from the data, not from the text of the source: active = GI50 up to about 1.1 µM and inactive = higher.
Outcome codes: true = active, false = inactive

compound="COC1CC(OS(=O)(=O)c2ccc(C)cc2)C(OC(=O)c2ccccc2)C(C)O1 (stereo not given)" target_or_system="HCC 2998" assigned_category=false
compound=O=C(Cc1ccccc1)NN1C(=O)/C(=C\c2ccc(O)cc2)S/C1=N\c1ccccc1 target_or_system="HCC 2998" assigned_category=false
compound="CCN(CC)CC1CN=C(N)O1 (stereo not given)" target_or_system="HCC 2998" assigned_category=false
compound="CC(C)N(C(=O)C12C3C4C1C1C2C3C41C#N)C(C)C (stereo not given)" target_or_system="HCC 2998" assigned_category=false
compound="COc1cc(OC2OC(COC(=O)c3cc(O)c(O)c(O)c3)C(O)C(O)C2O)ccc1O (stereo not given)" target_or_system="HCC 2998" assigned_category=false
compound=Nn1c(Cc2ccccc2)n[nH]c1=O target_or_system="HCC 2998" assigned_category=false
compound="CCOC(=O)C1(Cc2ccc3ccccc3c2)CCCCC(=O)N1 (stereo not given)" target_or_system="HCC 2998" assigned_category=false
compound="C1CCC(OCc2nnn3c2CCC3)OC1 (stereo not given)" target_or_system="HCC 2998" assigned_category=false
compound=CO/C(N)=C(C#N)/N=C/c1cccnc1 target_or_system="HCC 2998" assigned_category=false
compound="CC(=O)OC1[C@H]2c3cc4c(cc3CN3CCC(=C[C@@H]1O)C23)OCO4 (stereo not given in full)" target_or_system="HCC 2998" assigned_category=false
compound="OC(c1ccoc1)c1cc2ccccc2s1 (stereo not given)" target_or_system="HCC 2998" assigned_category=false
compound="C=C1CC(c2ccc(O)c(OC)c2)Oc2c(OC)cccc21 (stereo not given)" target_or_system="HCC 2998" assigned_category=false
compound="CC1(C)C[C@H]2C=C(C=O)[C@]34C[C@]3(C(=O)OC4O)[C@H]2C1 (stereo not given in full)" target_or_system="HCC 2998" assigned_category=false
compound=Cc1noc(C)c1CCCOC1COc2ccccc2OCCOCCOc2ccccc2OC1 target_or_system="HCC 2998" assigned_category=false
compound=CCCCCCCC/C=C\CCCCCCC/C=C1/C[C@](/C=C/C(=O)OC)(CO)OC1=O target_or_system="HCC 2998" assigned_category=false
compound=O=C(/C=C/c1c(O)nc2ccccc2c1O)CC(=O)C(=O)Nc1cccc(O)c1 target_or_system="HCC 2998" assigned_category=false
compound="COc1cc(C2NCCC(c3ccccc3)(c3ccccc3)N2)cc(OC)c1OC (stereo not given)" target_or_system="HCC 2998" assigned_category=false
compound=CCCC1=NC(C(F)(F)F)(C(F)(F)F)N=C(N2CCOCC2)O1 target_or_system="HCC 2998" assigned_category=false
compound=C=C1C(=O)O[C@@H]2C[C@@H]3[C@]4(CC[C@]5(C)[C@@H]([C@H](C)CC/C=C(\C)C=O)CC[C@@]35C)C[C@]4(CCC(=O)OC)[C@H]12 target_or_system="HCC 2998" assigned_category=false
compound=COc1cc2cc(c1Cl)N(C)C(=O)C[C@H](OC(=O)[C@H](C)N(C)C(C)=O)[C@]1(C)O[C@H]1[C@H](C)[C@@H]1C[C@@](O)(NC(=O)O1)[C@H](OC)/C=C/C=C(/C)C2 target_or_system="HCC 2998" assigned_category=true

Source: ChEMBL document CHEMBL1201862
